# system: HLA-A*01:01 in complex with the BTK peptide … conjugated with Ibrutinib (human;, ibrutinib covalently bound to Cys)
# assay method text: multiplex bead-binding assay
Entries and their pKd
Just the number, please; pKd means minus log10 of the concentration in mol/L.

Illustrative cases are given below, each with its answer.
Prompt: May I ask what pKd has been recorded for IBA1-4 (antibody, V domains shown) VH: EVQLVESGGGLVQPGGSLRLSCAASGFTVSSSSIHWVRQAPGKGLEWVASIYSYSGSTYYADSVKGRFTISADTSKNTAYLQMNSLRAEDTAVYYCARQYSSSYYVWPGMDYWGQGTLVTVSS VL: DIQMTQSPSSLSASVGDRVTITCRASQSVSSAVAWYQQKPGKAPKLLIYSASSLYSGVPSRFSGSRSGTDFTLTISSLQPEDFATYYCQQYHYWASLITFGQGTKVEIKR ?
Completion: 9.19

Prompt: May I ask what pKd has been recorded for IBA1-21 (antibody, V domains shown) VH: EVQLVESGGGLVQPGGSLRLSCAASGFTISSSSIHWVRQAPGKGLEWVASISSYYGYTSYADSVKGRFTISADTSKNTAYLQMNSLRAEDTAVYYCARYYSYSSGYGYYDYFDWGAMDYWGQGTLVTVSS VL: DIQMTQSPSSLSASVGDRVTITCRASQSVSSAVAWYQQKPGKAPKLLIYSASSLYSGVPSRFSGSRSGTDFTLTISSLQPEDFATYYCQQMQYSGWLITFGQGTKVEIKR ?
Completion: 10.40

Continuing:
Prompt: May I ask what pKd has been recorded for IBA1-19 (antibody, V domains shown) VH: EVQLVESGGGLVQPGGSLRLSCAASGFTFSYSSIHWVRQAPGKGLEWVASIYPSSGYTSYADSVKGRFTISADTSKNTAYLQMNSLRAEDTAVYYCARGWWYWMAWDYAMDYWGQGTLVTVSS VL: DIQMTQSPSSLSASVGDRVTITCRASQSVSSAVAWYQQKPGKAPKLLIYSASSLYSGVPSRFSGSRSGTDFTLTISSLQPEDFATYYCQQSWMSDSLITFGQGTKVEIKR ?
Completion: 9.28

Prompt: May I ask what pKd has been recorded for IBA1-8 (antibody, V domains shown) VH: EVQLVESGGGLVQPGGSLRLSCAASGFTISYSSIHWVRQAPGKGLEWVASIYPSYGSTSYADSVKGRFTISADTSKNTAYLQMNSLRAEDTAVYYCARWQGYYQPALDYWGQGTLVTVSS VL: DIQMTQSPSSLSASVGDRVTITCRASQSVSSAVAWYQQKPGKAPKLLIYSASSLYSGVPSRFSGSRSGTDFTLTISSLQPEDFATYYCQQPYYPLITFGQGTKVEIKR ?
Completion: 7.21

Prompt: May I ask what pKd has been recorded for IBA1-7 (antibody, V domains shown) VH: EVQLVESGGGLVQPGGSLRLSCAASGFTLSSSSIHWVRQAPGKGLEWVASISSYYGSTSYADSVKGRFTISADTSKNTAYLQMNSLRAEDTAVYYCARMHYSWQEYYSYDWGMDYWGQGTLVTVSS VL: DIQMTQSPSSLSASVGDRVTITCRASQSVSSAVAWYQQKPGKAPKLLIYSASSLYSGVPSRFSGSRSGTDFTLTISSLQPEDFATYYCQQSYWWKSLVTFGQGTKVEIKR ?
Completion: 6.77

Prompt: May I ask what pKd has been recorded for IBA1-13 (antibody, V domains shown) VH: EVQLVESGGGLVQPGGSLRLSCAASGFTLSSSSIHWVRQAPGKGLEWVASIYSSYGYTYYADSVKGRFTISADTSKNTAYLQMNSLRAEDTAVYYCARYYYYWYGGMDYWGQGTLVTVSS VL: DIQMTQSPSSLSASVGDRVTITCRASQSVSSAVAWYQQKPGKAPKLLIYSASSLYSGVPSRFSGSRSGTDFTLTISSLQPEDFATYYCQQGHDMNPVTFGQGTKVEIKR ?
Completion: 9.86
